TARGET_OR_SYSTEM: T1, Human PCSK9 Alexa Fluor 647 (human, UniProt Q8NBP7 31-692, limits assumed, Alexa Fluor 647 label (site not stated))
T1 construct: Labelled tracer of the TR-FRET assay, 16 nM stock; also called proprotein convertase subtilisin/kexin type 9
T1 sequence (Q8NBP7 31-692 limits assumed): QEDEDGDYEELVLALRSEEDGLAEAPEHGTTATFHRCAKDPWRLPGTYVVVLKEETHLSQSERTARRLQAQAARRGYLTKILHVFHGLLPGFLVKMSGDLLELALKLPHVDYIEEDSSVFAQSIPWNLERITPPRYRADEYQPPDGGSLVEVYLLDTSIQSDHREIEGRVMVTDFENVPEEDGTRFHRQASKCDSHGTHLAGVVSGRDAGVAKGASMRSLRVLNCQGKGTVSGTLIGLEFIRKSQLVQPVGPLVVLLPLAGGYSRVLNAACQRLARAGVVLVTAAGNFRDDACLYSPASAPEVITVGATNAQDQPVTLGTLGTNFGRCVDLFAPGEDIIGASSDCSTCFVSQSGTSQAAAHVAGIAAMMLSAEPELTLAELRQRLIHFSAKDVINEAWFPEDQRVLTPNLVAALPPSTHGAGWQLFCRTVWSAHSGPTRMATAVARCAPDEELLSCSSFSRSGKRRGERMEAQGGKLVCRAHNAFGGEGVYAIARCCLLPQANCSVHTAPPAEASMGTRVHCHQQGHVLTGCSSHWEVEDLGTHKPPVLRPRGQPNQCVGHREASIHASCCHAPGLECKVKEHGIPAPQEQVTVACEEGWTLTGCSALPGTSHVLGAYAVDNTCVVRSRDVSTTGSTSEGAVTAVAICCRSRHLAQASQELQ
PROCEDURE_SUMMARY: TR-FRET competition: PCSK9-Alexa Fluor 647 vs LDLR ECD-Eu kryptate
Bridge positions count the residues as written; N and C are the ends. Square brackets hold non-standard residues; d marks the D form. Phe(4-CF3) = N[C@@H](Cc1ccc(C(F)(F)F)cc1)C(=O)O; Bip = N[C@@H](Cc1ccc(-c2ccccc2)cc1)C(=O)O; Phe(4-Cl) = N[C@@H](Cc1ccc(Cl)cc1)C(=O)O; NMeF = CN[C@@H](Cc1ccccc1)C(=O)O; hSer = N[C@@H](CCO)C(=O)O; NMeA = CN[C@@H](C)C(=O)O
ASSAY_ENDPOINT: Maximum % inhibition (%)
Your answer should be a plain number; it is taken to be in %.

Take a look at these entries with their results.
Requested field: Maximum % inhibition. Item: {CH2CO}-FV[hSer]TTF[NMeA][Phe(4-Cl)][NMeA]DAPC-NH2 (thioether N-13; SMILES CC(C)[C@@H]1NC(=O)[C@H](Cc2ccccc2)NC(=O)CSC[C@@H](C(N)=O)NC(=O)[C@@H]2CCCN2C(=O)[C@H](C)NC(=O)[C@H](CC(=O)O)NC(=O)[C@H](C)N(C)C(=O)[C@H](Cc2ccc(Cl)cc2)NC(=O)[C@H](C)N(C)C(=O)[C@H](Cc2ccccc2)NC(=O)[C@H]([C@@H](C)O)NC(=O)[C@H]([C@@H](C)O)NC(=O)[C@H](CCO)NC1=O, also called 2-3; Ex. No. 2-3) [Ac*-F-V-HomoSer-T-T-F-(N-Me)A-(p-Cl)F-(N-Me)A-D-A-P-C*-NH2]
75

Item {CH2CO}-FVNTTA[NMeF][Bip][NMeA]QAPCG-NH2 (thioether N-13; SMILES CC(C)[C@@H]1NC(=O)[C@H](Cc2ccccc2)NC(=O)CSC[C@@H](C(=O)NCC(N)=O)NC(=O)[C@@H]2CCCN2C(=O)[C@H](C)NC(=O)[C@H](CCC(N)=O)NC(=O)[C@H](C)N(C)C(=O)[C@H](Cc2ccc(-c3ccccc3)cc2)NC(=O)[C@H](Cc2ccccc2)N(C)C(=O)[C@H](C)NC(=O)[C@H]([C@@H](C)O)NC(=O)[C@H]([C@@H](C)O)NC(=O)[C@H](CC(N)=O)NC1=O, also called 1-18; Ex. No. 1-18) [Ac*-F-V-N-T-T-A-(N-Me)F-B-(N-Me)A-Q-A-P-C*-G-NH2] has what recorded Maximum % inhibition?
53

Would you kindly share the measured Maximum % inhibition for {CH2CO}-FVSTT[Phe(4-CF3)][NMeA][Phe(4-CF3)][NMeA]ERPCG-NH2 (thioether N-13; SMILES CC(C)[C@@H]1NC(=O)[C@H](Cc2ccccc2)NC(=O)CSC[C@@H](C(=O)NCC(N)=O)NC(=O)[C@@H]2CCCN2C(=O)[C@H](CCCNC(=N)N)NC(=O)[C@H](CCC(=O)O)NC(=O)[C@H](C)N(C)C(=O)[C@H](Cc2ccc(C(F)(F)F)cc2)NC(=O)[C@H](C)N(C)C(=O)[C@H](Cc2ccc(C(F)(F)F)cc2)NC(=O)[C@H]([C@@H](C)O)NC(=O)[C@H]([C@@H](C)O)NC(=O)[C@H](CO)NC1=O, also called 1-11; Ex. No. 1-11) [Ac*-F-V-S-T-T-(p-CF3)F-(N-Me)A-(p-CF3)F-(N-Me)A-E-R-P-C*-G-NH2] ?
55

Report Maximum % inhibition for FVSTTXAXADSPCG (not fully specified; N-terminal acetyl (Ac*) joined by a sulfide bond to the side chain of Cys13 (cyclic); 6: L-Bip; 7: L-(N-Me)Ala; 8: L-Bip; 9: L-(N-Me)Ala; C-terminal amide (NH2), also called 1-8; Ex. No. 1-8) [Ac*-F-V-S-T-T-B-(N-Me)A-B-(N-Me)A-D-S-P-C*-G-NH2] please.
58

// below: Maximum % inhibition requested for another binder
Tell me the measured Maximum % inhibition of {CH2CO}-FVPTTV[NMeA][Phe(4-Cl)][NMeA]EAPC-NH2 (thioether N-13; SMILES CC(C)[C@@H]1NC(=O)[C@H]([C@@H](C)O)NC(=O)[C@H]([C@@H](C)O)NC(=O)[C@@H]2CCCN2C(=O)[C@H](C(C)C)NC(=O)[C@H](Cc2ccccc2)NC(=O)CSC[C@@H](C(N)=O)NC(=O)[C@@H]2CCCN2C(=O)[C@H](C)NC(=O)[C@H](CCC(=O)O)NC(=O)[C@H](C)N(C)C(=O)[C@H](Cc2ccc(Cl)cc2)NC(=O)[C@H](C)N(C)C1=O, also called 2-6; Ex. No. 2-6) [Ac*-F-V-P-T-T-V-(N-Me)A-(p-Cl)F-(N-Me)A-E-A-P-C*-NH2] , please.
83
